- PROTOCOL TEXT: protein stability index of a GFP-peptide fusion (GPS, HEK-293T) (PSI 1-6); higher = more stable;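 also: 24-mer peptide tiles fused after GFP, lentivirally expressed, FACS-sorted into six equal bins by GFP/DsRed ratio, decoded by Illumina sequencing, PSI is the read-weighted mean bin number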
- CONDITIONS: treatment: MLN4924 1 uM, 8 h; c terminus: native
MEASURED QUANTITY: protein stability index
Field format: numeric only.

TIVEEVQDGKVISSREQVHQTTR [KRT17] | 5.08
ILEFAEKEGMVSSGQNLLAVESQ [PTPN9] | 3.03
NLQSLKFQGGHGPAATLLRRSKT [RIPK4] | 3.27
CSKSFRQRAGLIMHQVTHFRGLI [ZNF449] | 3.08
YHSQDRYEFSSHITRGEHRFHMS [IKZF1] | 2.86
YKKAVGLKLKQEKKEAYLKLKQG [WDR88] | 3.13

query: For the sequence shown here, HPPPSTPIKLEEGDGCAREYLLP [ADD1] , give the reported protein stability index.
result: 4.81

query: Record: YPENDWDTAAPVPQKDLEIFKNF [PRKX]
result: 5.33

---

- PROTOCOL TEXT: protein stability index of a GFP-peptide fusion (GPS, HEK-293T) (PSI 1-6); higher = more stable
- CONDITIONS: treatment: MLN4924 1 uM, 8 h; c terminus: a fixed tail appended
MEASURED QUANTITY: protein stability index

In the examples that follow, each entry is paired with its recorded protein stability index.
LPSENLGKEPLDPDPSHSPSDKVG [TOR1AIP2] | 5.49
SASLEVVKKDHVALQVPRGKEDST [CBY2] | 5.35
CEVMQEIVDQVLEEDFDSEQLSVL [INTS3] | 5.16

query: For the sequence shown here, AHIHLQQLTCFSITCSSTMSYSCC [KRT34] , give the reported protein stability index.
result: 2.95

query: Record: HYPFLGAMGDHSKKKPGTAMCVGC [ISL2]
result: 3.25

---

- PROTOCOL TEXT: protein stability index of a GFP-peptide fusion (GPS, HEK-293T) (PSI 1-6); higher = more stable
- CONDITIONS: treatment: DMSO; c terminus: a fixed tail appended
Recorded protein stability index by entry

In the examples that follow, each entry is paired with its recorded protein stability index.
ATNPHVKPPYSYATLICMAMQASK [FOXJ1] | 2.29
LIQHQRIHKGEKPYQCSQCSKSYS [ZSCAN9] | 2.89
MGTRDDEYDYLFKVVLIGDSGVGK [RAB11A] | 2.27
RKRRLFCTMEPEPVQPGMLIDVCK [TRIM35] | 2.6

query: For the sequence shown here, EAFQLYQEAAQLDMLLEKLPQVAE [FLOT1] , give the reported protein stability index.
result: 2.43

query: Record: ELDDTLKYSFLQFDPAPRRGEPHV [PPP2CA]
result: 3.2

---

- PROTOCOL TEXT: protein stability index of a GFP-peptide fusion (GPS, HEK-293T) (PSI 1-6); higher = more stable
- CONDITIONS: treatment: DMSO; c terminus: a fixed tail appended
The label depends only on protein stability index: y if it is at least 3, n if it is smaller.

MCKEHEDEKINIYCLTCEVPTCSM [TRIM63] | y
VSFSTGAGGWSNHHFCVILLGFLP [BET1L] | n
HCIQQILESVNHCHLNGIVHRDLK [CAMK2D] | n
YSIPEELEKGSFVGNISKDLGLAP [PCDHGA10] | y
QYYEACRKAAKSLIKLGLERFHGV [ACSBG2] | y

query: State whether the measured protein stability index reaches 3, counting equality as reaching it, for STKMDCVWSNWKSQAIDLLYWRDI [RTN1]
result: n

query: Record: KNKPKMNYEKLSRGLRYYYDKNII [ETS1]
result: n

query: Record: AVHSGTPVTNNLLEKCKTLVSQSN [SPACA9]
result: y

query: Record: AALRIANCKLFRLQLQQGLFRIRV [GAN]
result: n

query: Record: HEKIGFPAARRCHSCVQIKNDVFI [KLHDC10]
result: n

query: Record: KLIATSNKPAVKLLYNRSNNKYSY [KCTD10]
result: n

query: Record: FDGRHSQTLKAMVQAWPFTCLPLG [PRAME]
result: n

query: Record: PGMASHPPIPILELADHIERLKAN [PTPRD]
result: y
